System: NCI-H460
experiment description: Growth inhibition of human NCI-H460 cells at 40 ug/ml after 72 hrs by MTT assay
Assay type: functional
test settings: NCI-H460, 72 h, read-out: GI
readout name: inhibition of growth at 40 µg/mL
Param answer (str): number followed by unit.

Below are worked cases with known answers.
Cc1cc(Cl)cc(C(=O)NC2CCCCC2)c1NC(=O)C1CC(c2ccc(F)cc2)=NO1 (stereo not drawn); 33.3%
CCN(CC)C(=O)c1cc(Cl)cc(C)c1NC(=O)C1CC(c2ccc(Cl)cc2)=NO1 (stereo not drawn); 63.5%

// below: inhibition of growth at 40 µg/mL requested for another compound
Q) Form field: reported inhibition of growth at 40 µg/mL of CC(C)NC(=O)c1ccccc1NC(=O)C1CC(c2ccc(Cl)cc2)=NO1 (stereo not drawn)
A) 0%
